Quick reference: MIC of the listed items.
- Test system: Staphylococcus aureus
- Assay text: Antibacterial activity against Staphylococcus aureus NCIM 5022 after 24 hr by agar well diffusion method
- Format: functional
- Experimental parameters: NCIM 5022, 24 h
Outcome measure: MIC (µg/mL)

> print(dat)
                                   compound  outcome.measure  test.value
1           CCOC(=O)CSc1nc2cc(Cl)cc(Cl)c2o1              MIC          25
2                    Sc1nc2cc(Cl)cc(Cl)c2o1              MIC          25
3  O=[N+]([O-])c1ccc(NCn2nc3oc4c(Cl)cc(Cl)cc4n3c2=S)cc1              MIC        3.12
4  O=C(O)c1cn(C2CC2)c2cc(N3CCNCC3)c(F)cc2c1=O [CIPROFLOXACIN]              MIC        3.12
5      CCOC(=O)CSc1nnc2oc3c(Cl)cc(Cl)cc3n12              MIC        6.25
6           S=c1[nH]nc2oc3c(Cl)cc(Cl)cc3n12              MIC        3.12
7                   NNc1nc2cc(Cl)cc(Cl)c2o1              MIC        6.25

---

- Tested on: Salmonella typhi
- Assay text: Antibacterial activity against Salmonella enterica subsp. enterica serovar Typhi ATCC 19430 after 24 hr by agar well diffusion method
- Type: functional
- Experimental parameters: ATCC 19430, 24 h
Outcome measure: MIC

> print(dat)
                                   compound  target.under.test  test.value
1                    Sc1nc2cc(Cl)cc(Cl)c2o1   Salmonella typhi    50 µg/mL
2  O=C(O)c1cn(C2CC2)c2cc(N3CCNCC3)c(F)cc2c1=O [CIPROFLOXACIN]   Salmonella typhi  6.25 µg/mL
3           S=c1[nH]nc2oc3c(Cl)cc(Cl)cc3n12   Salmonella typhi    50 µg/mL
4      CCOC(=O)CSc1nnc2oc3c(Cl)cc(Cl)cc3n12   Salmonella typhi    50 µg/mL

Value source: ChEMBL document CHEMBL3046598
